# Tested on: Colon tumor cell line
# protocol details: MTT antiproliferation assay, colon tumor cells
# Assay type: cell-based
# condition notes: Colon cells, MTT, approximately 72 hours; read-out: IC50
measurement name: pIC50
Scale: negative log10 of molar concentration, which is what pIC50 denotes.

Query block: Could you tell me which pIC50 is on file for CN1CC[C@H](c2c(O)cc(O)c3c(=O)cc(-c4ccccc4Cl)oc23)[C@H](O)C1 [flavopiridol, reference compound] ?
Result block: 7.52

// provenance: patent US6500936B2
